Tested on: P. falciparum strains D6, TM91-C235, W2, C2B
Assay: Malaria SYBR Green I-Based Fluorescence (MSF) assay
Assay type: cell-based
Conditions: Plasmodium falciparum; TM91-C235, multi-drug resistant strain; read-out: SYBR Green C235 IC50
The entries below are paired with their reported IC50.

>  <structure smiles string>
Cc1[nH]c2c(c(=O)c1-c1ccc(Oc3ccc(Cl)cc3)cc1)CCCC2

>  <value qualifier>
=

>  <IC50, nM>
69.1

$$$$
>  <structure smiles string>
Cc1[nH]c2c(c(=O)c1-c1ccc(Oc3ccc(C(=O)O)cc3)cc1)CCCC2

>  <value qualifier>
>

>  <IC50, nM>
20000

$$$$
>  <structure smiles string>
Cc1[nH]c2c(c(=O)c1-c1ccc(Oc3cccc(C(=O)O)c3)cc1)CCCC2

>  <value qualifier>
=

>  <IC50, nM>
12600

$$$$
>  <structure smiles string>
Cc1[nH]c2c(c(=O)c1-c1ccc(Oc3ccc(OC(F)(F)F)cc3)cc1)CCCC2

>  <value qualifier>
=

>  <IC50, nM>
61.6

$$$$

###

System: cytochrome P450 (CYP 450), 4 of 5 isoforms tested
Assay: CYP450 inhibition
Format: in vitro ADME
Settings: human; 4/5 isoforms

>  <structure smiles string>
Cc1[nH]c2c(c(=O)c1-c1ccc(Oc3ccc(OC(F)(F)F)cc3)cc1)CCCC2

>  <IC50>
> 10 µM

$$$$

###

Assay: Metabolic stability in mouse liver microsomes
Settings: mouse, liver microsomes, half-life in mouse liver microsomes
experimental readout: half-life (h)

>  <structure smiles string>
Cc1[nH]c2c(c(=O)c1-c1ccc(Oc3ccc(OC(F)(F)F)cc3)cc1)CCCC2

>  <experimental readout>
half-life

>  <recorded measurement>
1.68

$$$$

###

Assay: PPB (human)
Assay type: in vitro ADME
Settings: plasma
experimental readout: fraction unbound

>  <structure smiles string>
Cc1[nH]c2c(c(=O)c1-c1ccc(Oc3ccc(OC(F)(F)F)cc3)cc1)CCCC2

>  <recorded measurement>
0.001

$$$$

###

Test: Kinetic solubility in PBS pH 7.4 (Chem Partners)
Details: PBS, pH 7.4, aqueous solubility (PBS, pH 7.4), amorphous compounds
solubility by entry:
experimental readout: solubility (µM)

>  <compound>
Cc1[nH]c2c(c(=O)c1-c1ccc(Oc3ccc(Cl)cc3)cc1)CCCC2

>  <experimental readout>
solubility

>  <recorded measurement>
16

$$$$
>  <compound>
Cc1[nH]c2ccccc2c(=O)c1-c1ccc(Oc2ccc(OC(F)(F)F)cc2)cc1 [ELQ271, reference compound]

>  <experimental readout>
solubility

>  <recorded measurement>
0.2

$$$$
>  <compound>
Cc1[nH]c2c(c(=O)c1-c1ccc(Oc3ccc(OC(F)(F)F)cc3)cc1)CCCC2

>  <experimental readout>
solubility

>  <recorded measurement>
7

$$$$

###

Biological target: hERG (Homo sapiens, UniProt Q12809)
Sequence (Q12809 whole entry): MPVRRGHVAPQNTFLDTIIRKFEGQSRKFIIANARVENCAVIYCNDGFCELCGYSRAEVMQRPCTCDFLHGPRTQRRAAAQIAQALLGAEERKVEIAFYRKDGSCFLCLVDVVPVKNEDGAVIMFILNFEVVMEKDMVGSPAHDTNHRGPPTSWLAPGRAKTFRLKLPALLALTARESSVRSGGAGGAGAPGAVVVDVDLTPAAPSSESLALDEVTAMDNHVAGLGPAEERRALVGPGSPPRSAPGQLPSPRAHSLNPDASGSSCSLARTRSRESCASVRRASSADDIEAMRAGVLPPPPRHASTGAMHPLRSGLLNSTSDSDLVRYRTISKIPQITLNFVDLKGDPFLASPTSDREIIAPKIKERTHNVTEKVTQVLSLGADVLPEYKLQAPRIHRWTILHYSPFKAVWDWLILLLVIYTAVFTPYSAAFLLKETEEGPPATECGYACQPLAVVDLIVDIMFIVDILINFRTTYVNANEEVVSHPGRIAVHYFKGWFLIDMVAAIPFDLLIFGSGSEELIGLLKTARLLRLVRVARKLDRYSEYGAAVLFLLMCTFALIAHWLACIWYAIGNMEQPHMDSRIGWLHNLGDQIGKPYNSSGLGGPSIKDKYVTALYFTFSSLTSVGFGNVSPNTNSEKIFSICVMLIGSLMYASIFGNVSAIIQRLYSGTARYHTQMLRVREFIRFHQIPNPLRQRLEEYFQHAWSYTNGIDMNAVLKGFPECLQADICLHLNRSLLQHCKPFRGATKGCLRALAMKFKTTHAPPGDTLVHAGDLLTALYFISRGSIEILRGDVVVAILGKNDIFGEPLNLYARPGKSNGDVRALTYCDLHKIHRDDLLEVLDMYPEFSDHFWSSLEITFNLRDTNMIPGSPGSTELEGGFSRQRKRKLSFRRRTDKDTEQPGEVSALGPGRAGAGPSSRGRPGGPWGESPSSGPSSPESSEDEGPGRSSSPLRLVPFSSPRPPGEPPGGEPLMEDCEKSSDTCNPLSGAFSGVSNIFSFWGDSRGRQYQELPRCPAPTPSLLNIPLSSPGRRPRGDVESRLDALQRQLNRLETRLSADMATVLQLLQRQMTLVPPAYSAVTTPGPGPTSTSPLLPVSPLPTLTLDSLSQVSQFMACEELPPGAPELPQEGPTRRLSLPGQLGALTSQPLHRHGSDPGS
experimental readout: IC50

>  <structure smiles string>
Cc1[nH]c2c(c(=O)c1-c1ccc(Oc3ccc(OC(F)(F)F)cc3)cc1)CCCC2

>  <experimental readout>
IC50

>  <recorded measurement>
22 µM

$$$$

###

Test system: T. gondii EGS strain bradyzoites
Assay: In vitro challenge assay for EGS strain bradyzoites
Type: cell-based, Toxoplasma gondii
Conditions: Toxoplasma gondii; EGS strain in HFF; Figure 1A; read-out: Brady IC50
Documented IC50 across a set of molecules

>  <molecule>
Cc1[nH]c2ccnn2c(=O)c1-c1ccc(Oc2ccc(OC(F)(F)F)cc2)cc1

>  <value qualifier>
=

>  <IC50 / µM>
10

$$$$
>  <molecule>
Cc1[nH]c2c(c(=O)c1-c1ccc(Oc3cc(Cl)cc(Cl)c3)cc1)CCCC2

>  <value qualifier>
=

>  <IC50 / µM>
1

$$$$
>  <molecule>
Cc1[nH]c2c(c(=O)c1-c1ccc(Oc3ccc(OC(F)(F)F)cc3)cc1)CCCC2

>  <value qualifier>
=

>  <IC50 / µM>
2

$$$$
>  <molecule>
Cc1[nH]c2c(c(=O)c1-c1ccc(Oc3ccc(F)cc3)cc1)CCCC2

>  <value qualifier>
=

>  <IC50 / µM>
1

$$$$
>  <molecule>
Cc1[nH]c2c(c(=O)c1-c1ccc(Oc3ccc(F)c(Cl)c3)cc1)CCCC2

>  <value qualifier>
=

>  <IC50 / µM>
1

$$$$
>  <molecule>
Cc1[nH]c2ccccc2c(=O)c1-c1ccc(Oc2ccccc2)cc1

>  <value qualifier>
>

>  <IC50 / µM>
10

$$$$
>  <molecule>
Cc1[nH]c2c(c(=O)c1-c1ccc(Oc3cccc(Cl)c3)cc1)CCCC2

>  <value qualifier>
=

>  <IC50 / µM>
1

$$$$
>  <molecule>
Cc1[nH]c2c(c(=O)c1-c1ccc(Oc3cccc(OC(F)(F)F)c3)cc1)CCCC2

>  <value qualifier>
=

>  <IC50 / µM>
1

$$$$
>  <molecule>
Cc1[nH]c2ccccc2c(=O)c1-c1ccc(Oc2ccc(OC(F)(F)F)cc2)cc1 [ELQ271, reference compound]

>  <value qualifier>
=

>  <IC50 / µM>
5

$$$$
>  <molecule>
Cc1[nH]c2c(c(=O)c1-c1ccc(Oc3ccc(Cl)cc3)cc1)CCCC2

>  <value qualifier>
=

>  <IC50 / µM>
2

$$$$
>  <molecule>
Cc1[nH]c2c(c(=O)c1-c1ccc(Oc3cc(Cl)cc(Cl)c3)cc1)CCC(C)C2 (stereo not shown)

>  <value qualifier>
=

>  <IC50 / µM>
1

$$$$
>  <molecule>
Cc1[nH]c2c(c(=O)c1-c1ccc(Oc3cccc(F)c3)cc1)CCCC2

>  <value qualifier>
=

>  <IC50 / µM>
1

$$$$
>  <molecule>
Cc1[nH]c2c(c(=O)c1-c1ccc(Oc3ccc(Cl)c(Cl)c3)cc1)CCCC2

>  <value qualifier>
=

>  <IC50 / µM>
1

$$$$
